// data source = paper PMC4865820

Test system: P. aeruginosa DR4877/07
Format: cell-based
Experimental context: MIC of B2088 6.25 μg/ml; MHB, ~10^6 CFU/ml, 37 °C, 24 h
Binarize MIC of antibiotics in the presence of ½× sub-MIC of B2088 at 50 µg/mL; below is Y, at or above is N.

O=C(N[C@H](CO)[C@H](O)c1ccc([N+](=O)[O-])cc1)C(Cl)Cl :: Y
CCn1cc(C(=O)O)c(=O)c2ccc(C)nc21 [Nalidixic acid, reference compound] :: N
C[C@@H](O)[C@H]1C(=O)N2C(C(=O)O)=C(SCCN=CN)C[C@H]12 [Imipenem, reference compound] :: Y
NC[C@H]1O[C@H](O[C@H]2[C@H](O)[C@@H](O[C@H]3O[C@H](CO)[C@@H](O)[C@H](N)[C@H]3O)[C@H](N)C[C@@H]2N)[C@H](N)C[C@@H]1O :: N
COc1c(N2CCNC(C)C2)c(F)cc2c(=O)c(C(=O)O)cn(C3CC3)c12 (stereo not shown) :: Y
C[C@H]1COc2c(N3CCN(C)CC3)c(F)cc3c(=O)c(C(=O)O)cn1c23 [Levofloxacin, reference compound] :: Y
NC[C@H]1O[C@H](O[C@H]2[C@H](O)[C@@H](O[C@H]3O[C@H](CO)[C@@H](O)[C@H](N)[C@H]3O)[C@H](N)C[C@@H]2N)[C@H](O)[C@@H](O)[C@@H]1O [Kanamycin, reference compound] :: N

Next:
Dear colleague, could you confirm whether MIC of antibiotics in the presence of ½× sub-MIC of B2088 of CC1(C)S[C@@H]2[C@H](NC(=O)C(C(=O)O)c3ccccc3)C(=O)N2[C@H]1C(=O)O (stereo partly shown) [Carbenicillin, reference compound] falls below 50 µg/mL? Thanks.
N
